Listed here: items and their measured pKd.
- ASSAYED_TARGET: GDP-bound KRAS wild-type protein (Homo sapiens)
- EXPERIMENT_DESCRIPTION: Binding to KRAS by surface plasmon resonance (SPR), Single Cycle Kinetics
- CONDITION_DETAILS: SPR, Single Cycle Kinetics, 1:1 binding model; GDP-bound KRAS wild-type protein; read-out: KRAS KD
pKd: −log10 of the molar value.
MEASURED_ATTRIBUTE: pKd

CCO[C@@H]1C[C@H]2C(=O)NC3(CCC3)C(=O)N(C)[C@@H](C3CCCC3)C(=O)N(C)[C@H](C(=O)N(C)C)CC(=O)N(C)[C@@H](CC)C(=O)N[C@@H]([C@@H](C)CC)C(=O)N(C)CC(=O)N(C)[C@H]3C/C=C\CCN(C3=O)[C@@H](CC3CCCCC3)C(=O)N(C)CC(=O)N[C@@H](CCc3cc(F)c(C(F)(F)F)c(F)c3)C(=O)N2C1 : 9.85
CCO[C@@H]1C[C@H]2C(=O)NC3(CCC3)C(=O)N(C)[C@@H](C(CC)CC)C(=O)N(C)[C@H](C(=O)N(C)C)CC(=O)N(C)[C@@H](CC3CCCC3)C(=O)N[C@@H]([C@@H](C)CC)C(=O)N(C)CC(=O)N(C)[C@H]3C/C=C\CCN(C3=O)[C@@H](CC3CCCCC3)C(=O)N(C)CC(=O)N[C@@H](CCc3cc(F)c(C(F)(F)F)c(F)c3)C(=O)N2C1 : 9.07
CC[C@H](C)[C@@H]1NC(=O)[C@H](CC)N(C)C(=O)C[C@@H](C(=O)N(C)C)N(C)C(=O)[C@H](C2CCCC2)N(C)C(=O)C2(CCC2)NC(=O)[C@@H]2C[C@H](C)CN2C(=O)[C@H](CCc2cc(F)c(C(F)(F)F)c(F)c2)NC(=O)CN(C)C(=O)[C@H](CC2CCCCC2)N2CC/C=C\C[C@@H](C2=O)N(C)C(=O)CN(C)C1=O : 9.60

---

# pKd per entry
- ASSAYED_TARGET: GDP-bound KRAS wild-type protein (Homo sapiens, UniProt P01116)
- Sequence (P01116 whole entry): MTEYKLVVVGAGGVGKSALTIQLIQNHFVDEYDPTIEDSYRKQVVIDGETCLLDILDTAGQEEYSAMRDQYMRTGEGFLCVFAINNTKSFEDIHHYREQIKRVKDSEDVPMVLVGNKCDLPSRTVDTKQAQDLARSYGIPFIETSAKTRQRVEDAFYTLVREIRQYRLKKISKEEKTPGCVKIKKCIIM
- EXPERIMENT_DESCRIPTION: Binding to KRAS by surface plasmon resonance (SPR), Single Cycle Kinetics
- CONDITION_DETAILS: SPR Single Cycle Kinetics, GDP-bound KRAS wild-type protein, 1:1 binding model; read-out: KRAS KD
pKd: −log10 of the molar value. *1 amine or outer side, *2 acyl side, *3 side chain or, on linkers, in order; H or OH if unused. Where a SMILES comes first, the peptide text is derived from it. Bridges are numbered along the chain shown (N, C = ends). [ ]: non-standard residue; d: D form. The star is where a group is joined. hPhe(3,5-F2-4-CF3) = N[C@@H](CCc1cc(F)c(C(F)(F)F)c(F)c1)C(=O)O; hPhe(3-Cl-4-CF3) = N[C@@H](CCc1ccc(C(F)(F)F)c(Cl)c1)C(=O)O; NPrPhe(4-CF3) = CCCN[C@@H](Cc1ccc(C(F)(F)F)cc1)C(=O)O; X35 = COCCN([C@@H](Cc1ccc(C)cc1)C(=O)[*:2])[*:1]; NMePhe(4-Me) = CN[C@@H](Cc1ccc(C)cc1)C(=O)O; X13 = O=C([C@@H](N[*:1])C1CC(F)(F)C1)[*:2]; NMeGly(cPent) = CN[C@H](C(=O)O)C1CCCC1; Hyp = O=C(O)[C@@H]1C[C@@H](O)CN1; NMeD = CN[C@@H](CC(=O)O)C(=O)O; NMeL = CN[C@@H](CC(C)C)C(=O)O; Morpholide = C1CN(*)CCO1; NMeA = CN[C@@H](C)C(=O)O; Ac5c = NC1(C(=O)O)CCCC1; Aze = O=C(O)[C@@H]1CCN1; Sar = CNCC(=O)O
MEASURED_ATTRIBUTE: pKd

CC[C@H](C)[C@@H]1NC(=O)[C@H](CC(C)C)N(C)C(=O)C[C@@H](C(=O)N2CCOCC2)N(C)C(=O)[C@H](C2CCCC2)N(C)C(=O)C2(CCCC2)NC(=O)[C@@H]2CCCN2C(=O)[C@H](CCc2ccc(C(F)(F)F)c(Cl)c2)NC(=O)CN(C)C(=O)[C@H](Cc2ccc(C)cc2)N(C)C(=O)CN(C)C(=O)CN(C)C1=O [PP0018] ([NMeL]I[Sar][Sar][NMePhe(4-Me)][Sar][hPhe(3-Cl-4-CF3)]P[Ac5c][NMeGly(cPent)][NMeD]-Morpholide; lactam N-11) : 10.11
CCC[C@H]1C(=O)N[C@@H]([C@@H](C)CC)C(=O)N(C2CC2)CC(=O)N(C)[C@H]2C/C=C\CCN(C2=O)[C@@H](Cc2ccc(C(F)F)cc2)C(=O)N(C)CC(=O)N[C@@H](CCc2cc(F)c(C(F)(F)F)c(F)c2)C(=O)N2C[C@H](OCC)C[C@H]2C(=O)NC2(CC(C)(C)C2)C(=O)N(C)[C@@H](C(CC)CC)C(=O)N(C)[C@H](C(=O)N(C)C)CC(=O)N1C : 9.19
CCCN1C(=O)[C@@H]2CCN2C(=O)CN(C)C(=O)[C@H](C2CC(F)(F)C2)NC(=O)[C@H](CC(C)C)N(C)C(=O)C[C@@H](C(=O)N2CCOCC2)N(C)C(=O)[C@H](C2CCCC2)N(C)C(=O)C2(CCCC2)NC(=O)[C@@H]2CCCN2C(=O)[C@H](CCc2cc(F)c(C(F)(F)F)c(F)c2)NC(=O)CN(C)C(=O)[C@@H]1Cc1ccc(C(F)(F)F)cc1 [PP0787] ([NMeL][X13][Sar][Aze][NPrPhe(4-CF3)][Sar][hPhe(3,5-F2-4-CF3)]P[Ac5c][NMeGly(cPent)][NMeD]-Morpholide; lactam N-11) : 9.47
C#CC[C@H]1C(=O)N[C@@H]([C@@H](C)CC)C(=O)N(C)CC(=O)N(C)[C@H]2C/C=C\CCN(C2=O)[C@@H](Cc2ccc(C(F)(F)F)cc2)C(=O)N(C)CC(=O)N[C@@H](CCc2ccc(Cl)c(Cl)c2)C(=O)N2C[C@H](OCC)C[C@H]2C(=O)NC2(CC(C)(C)C2)C(=O)N(C)[C@@H](C2CCCC2)C(=O)N(C)[C@H](C(=O)N(C)CC)CC(=O)N1C : 9.59
CC[C@H](C)[C@@H]1NC(=O)[C@H](CC(C)C)N(C)C(=O)C[C@@H](C(=O)N2CCOCC2)N(C)C(=O)[C@H](C2CCCC2)N(C)C(=O)C2(CCC2)NC(=O)[C@@H]2CC(F)(F)CN2C(=O)[C@H](CCc2cc(F)c(C(F)(F)F)c(F)c2)NC(=O)CN(C)C(=O)[C@H](Cc2ccc(C(F)(F)F)cc2)N2CCCC[C@@H](C2=O)N(C)C(=O)CN(C)C1=O : 10.64
CC[C@H](C)[C@@H]1NC(=O)[C@H](CC(C)C)N(C)C(=O)C[C@@H](C(=O)N2CCOCC2)N(C)C(=O)[C@H](C2CCCC2)N(C)C(=O)C2(CCCC2)NC(=O)[C@@H]2CCCN2C(=O)[C@H](CCc2ccc(C(F)(F)F)c(Cl)c2)NC(=O)CN(C)C(=O)[C@H](Cc2ccc(C)cc2)N(CCOC)C(=O)[C@@H]2CCN2C(=O)[C@H](C)N(C)C1=O [PP0092] ([NMeL]I[NMeA][Aze][X35][Sar][hPhe(3-Cl-4-CF3)]P[Ac5c][NMeGly(cPent)][NMeD]-Morpholide; lactam N-11) : 9.82
CCCN1C(=O)CN(C)C(=O)CN(C)C(=O)[C@H]([C@@H](C)CC)NC(=O)[C@H](CC(C)C)N(C)C(=O)C[C@@H](C(=O)N2CCOCC2)N(C)C(=O)[C@H](C2CCCC2)N(C)C(=O)C2(CCCC2)NC(=O)[C@@H]2CCN2C(=O)[C@H](CCc2ccc(C(F)(F)F)c(Cl)c2)NC(=O)CN(C)C(=O)[C@@H]1Cc1ccc(C(F)(F)F)cc1 [PP0260] ([NMeL]I[Sar][Sar][NPrPhe(4-CF3)][Sar][hPhe(3-Cl-4-CF3)][Aze][Ac5c][NMeGly(cPent)][NMeD]-Morpholide; lactam N-11) : 9.41
CCO[C@@H]1C[C@H]2C(=O)NC3(CCC3)C(=O)N(C)[C@@H](C3CCCC3)C(=O)N(C)[C@H](C(=O)N3CCOCC3)CC(=O)N(C)[C@@H](CC(C)C)C(=O)N[C@@H]([C@@H](C)CC)C(=O)N(C)CC(=O)N(C)[C@H]3CCCCN(C3=O)[C@@H](Cc3ccc(C(F)(F)F)cc3)C(=O)N(C)CC(=O)N[C@@H](CCc3cc(F)c(C(F)(F)F)c(F)c3)C(=O)N2C1 : 10.54
CCCN1C(=O)[C@@H]2CCN2C(=O)[C@H](C)N(C)C(=O)[C@H]([C@@H](C)CC)NC(=O)[C@H](CC(C)C)N(C)C(=O)C[C@@H](C(=O)N(C)C)N(C)C(=O)[C@H](C2CCCC2)N(C)C(=O)C2(CCCC2)NC(=O)[C@@H]2C[C@@H](OCC)CN2C(=O)[C@H](CCc2ccc(C(F)(F)F)c(Cl)c2)NC(=O)CN(C)C(=O)[C@@H]1Cc1ccc(C(F)(F)F)cc1 [PP0438] ([NMeL]I[NMeA][Aze][NPrPhe(4-CF3)][Sar][hPhe(3-Cl-4-CF3)][Hyp](Et)[Ac5c][NMeGly(cPent)][NMeD]-NMe2; lactam N-11) : 10.52
